tested on: LXF-289; test: relative viability (nuclei count vs DMSO), 5 days (fraction); higher = more cells survive; settings: first compound 0.04 µM
Measured Property: relative viability
Give bare numbers.

Below, 2 compounds whose answers are already recorded.
compound="O=C(O)c1ccc(-c2c[nH]c3ncc(-c4ccccc4)cc23)cc1C1CCCC1 + COc1cc2c(Oc3ccc(NC(=O)C4(C(=O)Nc5ccc(F)cc5)CC4)cc3F)ccnc2cc1OCCCN1CCOCC1 [Foretinib] (partner 0.25 µM)" value_observed=0.972
compound="O=C(O)c1ccc(-c2c[nH]c3ncc(-c4ccccc4)cc23)cc1C1CCCC1 + C[C@]1(O)C[C@@H](c2nc(-c3ccc4ccc(-c5ccccc5)nc4c3)c3c(N)nccn32)C1 [Linsitinib] (partner 1 µM)" value_observed=0.94

Look up relative viability for the entries below, preserving their order.
1. O=C(O)c1ccc(-c2c[nH]c3ncc(-c4ccccc4)cc23)cc1C1CCCC1 + CS(=O)(=O)N1CCN(Cc2cc3nc(-c4cccc5[nH]ncc45)nc(N4CCOCC4)c3s2)CC1 [Pictilisib] (partner 1 µM)
2. O=C(O)c1ccc(-c2c[nH]c3ncc(-c4ccccc4)cc23)cc1C1CCCC1 + Nc1ncn([C@H]2C[C@H](O)[C@@H](CO)O2)c(=O)n1 [Decitabine] (partner 2 µM)
3. O=C(O)c1ccc(-c2c[nH]c3ncc(-c4ccccc4)cc23)cc1C1CCCC1 + CC(=O)Nc1cccc(-n2c(=O)n(C3CC3)c(=O)c3c(Nc4ccc(I)cc4F)n(C)c(=O)c(C)c32)c1 [Trametinib] (partner 0.02 µM)

[0.762, 0.352, 0.625]

----------
system: HARA; test: relative viability (nuclei count vs DMSO), 5 days (fraction); higher = more cells survive; details: first compound 0.04 µM
Measured Property: relative viability
Answers are plain numbers.

Batch lookup, relative viability per entry.
1. O=C(O)c1ccc(-c2c[nH]c3ncc(-c4ccccc4)cc23)cc1C1CCCC1 + N=C(N)NC(=N)NCCc1ccccc1 [Phenformin] (partner 250 µM)
2. O=C(O)c1ccc(-c2c[nH]c3ncc(-c4ccccc4)cc23)cc1C1CCCC1 + C[C@]1(O)C[C@@H](c2nc(-c3ccc4ccc(-c5ccccc5)nc4c3)c3c(N)nccn32)C1 [Linsitinib] (partner 1 µM)
3. O=C(O)c1ccc(-c2c[nH]c3ncc(-c4ccccc4)cc23)cc1C1CCCC1 + CC(C)C[C@H](NC(=O)[C@H](Cc1ccccc1)NC(=O)c1cnccn1)B(O)O [Bortezomib] (partner 0.002 µM)
4. O=C(O)c1ccc(-c2c[nH]c3ncc(-c4ccccc4)cc23)cc1C1CCCC1 + CC1(C)CCC(c2ccc(Cl)cc2)=C(CN2CCN(c3ccc(C(=O)NS(=O)(=O)c4ccc(N[C@H](CCN5CCOCC5)CSc5ccccc5)c(S(=O)(=O)C(F)(F)F)c4)cc3)CC2)C1 [Navitoclax] (partner 0.5 µM)
5. O=C(O)c1ccc(-c2c[nH]c3ncc(-c4ccccc4)cc23)cc1C1CCCC1 + COc1cc2c(Oc3ccc(NC(=O)C4(C(=O)Nc5ccc(F)cc5)CC4)cc3F)ccnc2cc1OCCCN1CCOCC1 [Foretinib] (partner 0.25 µM)

[0.469, 0.905, 1.05, 1.08, 0.836]

----------
tested on: H3255; test: relative viability (nuclei count vs DMSO), 5 days (fraction); higher = more cells survive; settings: first compound 0.8 µM
I'd be grateful if you could share measured relative viability for these entries.

molecule="C=C1C(=O)O[C@@H](CCCCCCCC)[C@@H]1C(=O)O [C-75] + CC(=O)Nc1cccc(-n2c(=O)n(C3CC3)c(=O)c3c(Nc4ccc(I)cc4F)n(C)c(=O)c(C)c32)c1 [Trametinib] (partner 0.02 µM)" value_observed=0.647
molecule="C=C1C(=O)O[C@@H](CCCCCCCC)[C@@H]1C(=O)O [C-75] + Nc1nc2[nH]cc(CCc3ccc(C(=O)N[C@@H](CCC(=O)O)C(=O)O)cc3)c2c(=O)[nH]1 [Pemetrexed] (partner 0.2 µM)" value_observed=0.577
molecule="C=C1C(=O)O[C@@H](CCCCCCCC)[C@@H]1C(=O)O [C-75] + CC1(C)CCC(c2ccc(Cl)cc2)=C(CN2CCN(c3ccc(C(=O)NS(=O)(=O)c4ccc(N[C@H](CCN5CCOCC5)CSc5ccccc5)c(S(=O)(=O)C(F)(F)F)c4)cc3)CC2)C1 [Navitoclax] (partner 0.5 µM)" value_observed=0.513

Now for the molecule whose relative viability we want.
Bench note: what relative viability did Oc1nc(-c2ccc(C(F)(F)F)cc2)nc2c1CSCC2 [XAV939] + N=C(N)NC(=N)NCCc1ccccc1 [Phenformin] (partner 250 µM) show?
0.381
